Target sequence: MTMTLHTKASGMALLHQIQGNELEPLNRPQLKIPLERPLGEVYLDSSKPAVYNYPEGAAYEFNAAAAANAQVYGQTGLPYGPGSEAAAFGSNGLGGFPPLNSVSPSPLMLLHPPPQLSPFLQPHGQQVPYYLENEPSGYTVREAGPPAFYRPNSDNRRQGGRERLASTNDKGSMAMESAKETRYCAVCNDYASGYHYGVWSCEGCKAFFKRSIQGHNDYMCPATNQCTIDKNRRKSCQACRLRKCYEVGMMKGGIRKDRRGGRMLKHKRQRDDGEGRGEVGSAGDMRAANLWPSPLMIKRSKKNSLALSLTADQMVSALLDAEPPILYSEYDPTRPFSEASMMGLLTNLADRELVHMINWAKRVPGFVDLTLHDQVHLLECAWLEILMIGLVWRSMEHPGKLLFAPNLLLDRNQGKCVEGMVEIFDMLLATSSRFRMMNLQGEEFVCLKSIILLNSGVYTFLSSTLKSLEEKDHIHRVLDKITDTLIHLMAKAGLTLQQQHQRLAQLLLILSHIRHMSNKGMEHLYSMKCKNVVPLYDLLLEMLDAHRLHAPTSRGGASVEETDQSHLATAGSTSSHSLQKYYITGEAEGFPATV
measurement-name: IC50 (µM)
State the answer as a number, implicitly in µM.

Reported IC50 for COc1cc(O)c(/C=C\C(C)(C)O)c(O)c1C(=O)/C=C/c1ccc(O)cc1 [CANDIDACHALCONE] : what is it?
80

Reported IC50 for COc1cc(O)c(/C=C\C(C)(C)O)c2c1C(=O)C[C@@H](c1ccccc1)O2 [TEPHROCANDIDIN A] : what is it?
3500

---

// values below are reported inhibition
Target: Estrogen receptor (Homo sapiens)
Assay: Inhibition of fluorescence-labeled 17beta-estradiol binding to ERalpha receptor at 5 mM after 2 hrs by fluorometric analysis
State the answer as a number, implicitly in %.

Here's what some known entries look like.
COc1cc(O)c(/C=C\C(C)(C)O)c2c1C(=O)C[C@@H](c1ccccc1)O2 :: 70.1
COc1cc(O)c(/C=C\C(C)(C)O)c2c1C(=O)CC(c1ccc(O)cc1)O2 (stereo not given) :: 86.2
COc1cc(O)c(/C=C\C(C)(C)O)c(O)c1C(=O)/C=C/c1ccc(O)cc1 :: 95.1

Reported inhibition for COc1ccc2c(c1)OC[C@]1(O)c3cc4c(cc3O[C@H]21)OCO4 : what is it?
36.2

Reported inhibition for C=C1CC[C@@H](O)[C@]2(C)CC[C@@](O)(C(C)C)[C@H](O)[C@@H]12 : what is it?
67.3

Values compiled from ChEMBL document CHEMBL1781994.
